B1: CD2-associated protein, residues 271 to 331; numbered along this chain, Q9Y5K6 (parent)
chain: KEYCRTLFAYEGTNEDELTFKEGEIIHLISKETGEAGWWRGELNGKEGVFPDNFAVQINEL

variants of: B1; assay: abundance fitness (aPCA) (normalised: wild type 0, dead -1); higher = more abundant; growth selection in yeast, the domain comes from the species named; conditions: Homo sapiens
PARAMETER_MEASURED: abundance fitness
Please give the numeric answer without any surrounding text.

{"MUTATION_LIST": "Y10T", "abundance fitness": -0.864}
{"MUTATION_LIST": "T33A", "abundance fitness": -0.198}
{"MUTATION_LIST": "T13W", "abundance fitness": -0.475}
{"MUTATION_LIST": "W39L", "abundance fitness": -0.532}
{"MUTATION_LIST": "I58H", "abundance fitness": -0.234}
{"MUTATION_LIST": "G37I", "abundance fitness": -0.613}
{"MUTATION_LIST": "E32S", "abundance fitness": -0.091}

Shifting focus to the variant that follows.
Find the recorded abundance fitness belonging to K46G and report it.
-0.924
